target: the molecule itself; assay: SDS-PAGE; purified proteins on Bio-Rad AnyKd gel, InstantBlue staining; apparent monomer and dimer bands
measuredQuantity: binding result

| protein | result |
| --- | --- |
| SUMO-Mms6 R55A (natural protein, Magnetospirillum magneticum AMB-1, Mms6, Magnetospirillum magneticum AMB-1, mature form; numbers count on: the mature protein; Same tags and construct as m1; source: E. coli BL21 (DE3) Star, purified (nickel column, dialysis); not shown: His6, N-terminal, kept; SUMO (yeast), N-terminal, kept) GGTIWTGKGLGLGLGLGLGAWGPIILGVVGAGAVYAYMKSRDIESAQSDEEVELADALA | binds |
| SUMO-Mms6 E51A (natural protein, Magnetospirillum magneticum AMB-1, Mms6, Magnetospirillum magneticum AMB-1, mature form; numbers count on: the mature protein; Same tags and construct as m1; source: E. coli BL21 (DE3) Star, purified (nickel column, dialysis); not shown: His6, N-terminal, kept; SUMO (yeast), N-terminal, kept) GGTIWTGKGLGLGLGLGLGAWGPIILGVVGAGAVYAYMKSRDIESAQSDEAVELRDALA | binds |
| SUMO-Mms6 D42A (natural protein, Magnetospirillum magneticum AMB-1, Mms6, Magnetospirillum magneticum AMB-1, mature form; numbers count on: the mature protein; Same tags and construct as m1 (pET28SUMOmms6, site directed mutagenesis); source: E. coli BL21 (DE3) Star, purified (nickel column, dialysis); not shown: His6, N-terminal, kept; SUMO (yeast), N-terminal, kept) GGTIWTGKGLGLGLGLGLGAWGPIILGVVGAGAVYAYMKSRAIESAQSDEEVELRDALA | binds |
| SUMO-Mms6 E44A (natural protein, Magnetospirillum magneticum AMB-1, Mms6, Magnetospirillum magneticum AMB-1, mature form; numbers count on: the mature protein; Same tags and construct as m1; source: E. coli BL21 (DE3) Star, purified (nickel column, dialysis); not shown: His6, N-terminal, kept; SUMO (yeast), N-terminal, kept) GGTIWTGKGLGLGLGLGLGAWGPIILGVVGAGAVYAYMKSRDIASAQSDEEVELRDALA | binds |

Short answer for SUMO-Mms6 E50A (natural protein, Magnetospirillum magneticum AMB-1, Mms6, Magnetospirillum magneticum AMB-1, mature form; numbers count on: the mature protein; Same tags and construct as m1; source: E. coli BL21 (DE3) Star, purified (nickel column, dialysis); not shown: His6, N-terminal, kept; SUMO (yeast), N-terminal, kept) GGTIWTGKGLGLGLGLGLGAWGPIILGVVGAGAVYAYMKSRDIESAQSDAEVELRDALA : binding result was binds
